Biological target: FXR (Homo sapiens (Human), UniProt Q96RI1)
Sequence (Q96RI1 262-486): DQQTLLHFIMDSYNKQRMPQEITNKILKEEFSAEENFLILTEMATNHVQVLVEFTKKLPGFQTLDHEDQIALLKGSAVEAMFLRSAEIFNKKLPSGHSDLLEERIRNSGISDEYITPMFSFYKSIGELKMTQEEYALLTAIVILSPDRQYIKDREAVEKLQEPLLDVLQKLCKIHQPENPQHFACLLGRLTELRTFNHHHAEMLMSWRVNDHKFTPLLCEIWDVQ
Experiment: transient human FXR/Gal4-luciferase reporter assay
Type: cell-based
quantity_kind: pEC50
Worth noting: pEC50 values are minus log10 of concentrations stated in mol/L.

Q. Name the reported pEC50 value associated with the compound Cc1nc2ccc(-c3cccc(N(CC45CCC(c6nc(C7CC7)no6)(CC4)OC5)C(=O)C4CC(C(F)F)C4)c3)cc2s1 (stereo not shown)
A. 6.04

Q. Name the reported pEC50 value associated with the compound CCOc1ncc(-c2cccc(N(CC34CCC(c5nc(C(C)(C)C)no5)(CC3)CC4)C(=O)C34CC(NC(=O)OC(C)(C)C)(C3)C4)c2)cn1
A. 6.21

Q. Name the reported pEC50 value associated with the compound O=C(C1CC(F)(F)C1)N(CC12CCC(c3nc(C4CC4)no3)(CC1)CC2)c1cccc(-c2nc3cc(F)ccc3o2)c1
A. 5.82

Q. Name the reported pEC50 value associated with the compound COc1ncc(-c2ccnc(N(CC34CCC(c5noc(C(C)(C)C)n5)(CC3)CC4)C(=O)C34CC(F)(C3)C4)c2)cn1
A. 6.92

Q. Name the reported pEC50 value associated with the compound Cc1nc2ccc(-c3ccnc(N(CC45CCC(c6cc(C7CC7)nn6C)(CC4)CC5)C(=O)C45CC(F)(C4)C5)c3)cc2s1
A. 7.32

Q. Name the reported pEC50 value associated with the compound CCOc1ccc(-c2ccnc(N(CC34CCC(c5noc(C(C)(C)C)n5)(CC3)CC4)C(=O)C34CC(F)(C3)C4)c2)cn1
A. 7.54

Q. Name the reported pEC50 value associated with the compound CC(C)(C)c1nc(C23CCC(CN(C(=O)C45CC(F)(C4)C5)c4cc(-c5cnc(C6CC6)nc5)ccn4)(CC2)CC3)no1
A. 6.92

Q. Name the reported pEC50 value associated with the compound CC(C)(O)c1ccc(-c2cccc(N(CC34CCC(c5noc(C(C)(C)F)n5)(CC3)CC4)C(=O)NC3CCS(=O)(=O)CC3)c2)cc1
A. 6.13

Q. Name the reported pEC50 value associated with the compound CC(C)(C)c1nc(C23CCC(CN(C(=O)C45CC(F)(C4)C5)c4cc(-c5cnc6nc(C7CC7)sc6c5)ccn4)(CC2)CC3)no1
A. 6.69

Q. Name the reported pEC50 value associated with the compound CC(C)(C)c1nc(C23CCC(CN(C(=O)C45CC(F)(C4)C5)c4cc(-c5ccc(OC(F)F)cc5)ccn4)(CC2)CC3)no1
A. 7.59

Q. Name the reported pEC50 value associated with the compound CCOc1ncc(-c2cccc(N(CC34CCC(c5noc(C(C)(C)C)n5)(CC3)CC4)C(=O)C3(C)COC3)c2)cn1
A. 6.01

Q. Name the reported pEC50 value associated with the compound Cc1nc2ccc(-c3cccc(N(CC45CCC(c6nnc(C7CC7)o6)(CC4)CC5)C(=O)C4CC(C(F)F)C4)c3)cc2s1 (stereo not shown)
A. 6.50

Q. Name the reported pEC50 value associated with the compound CCOc1ccc(-c2cccc(N(CC34CCC(c5ccc(C(F)(F)F)cn5)(CC3)CC4)C(=O)C34CC(F)(C3)C4)c2)cn1
A. 6.25

Q. Name the reported pEC50 value associated with the compound CCOc1ncc(-c2cccc(N(CC34CCC(c5noc(C6(C)COC6)n5)(CC3)CC4)C(=O)[C@H]3C[C@](O)(C(F)(F)F)C3)c2)cn1
A. 6.35

Q. Name the reported pEC50 value associated with the compound O=C(N(CC12CCC(c3noc(C4(C(F)(F)F)CC4)n3)(CC1)CC2)c1cccc(-c2cnc3nc(C4CC4)sc3c2)c1)C12CC(F)(C1)C2
A. 6.30

Q. Name the reported pEC50 value associated with the compound Cc1nc2ccc(-c3cncc(N(CC45CCC(c6noc(C(C)(C)C)n6)(CC4)CC5)C(=O)C45CC(F)(C4)C5)c3)cc2s1
A. 6.46

Q. Name the reported pEC50 value associated with the compound Cc1nc2ccc(-c3cccc(N(CC45CCC(c6noc(C(F)F)n6)(CC4)CC5)C(=O)C45CC(F)(C4)C5)c3)cc2s1
A. 6.97

Q. Name the reported pEC50 value associated with the compound CCOc1ccc(-c2cncc(N(CC34CCC(c5nc(C(C)(C)C)no5)(CC3)CC4)C(=O)C34CC(F)(C3)C4)c2)cn1
A. 6.31

Q. Name the reported pEC50 value associated with the compound CC(C)(C)c1noc(C23CCC(CN(C(=O)C45CC(F)(C4)C5)c4cncc(-c5ccc(NS(C)(=O)=O)cc5)c4)(CC2)CC3)n1
A. 5.80

Q. Name the reported pEC50 value associated with the compound O=C(N(CC12CCC(c3ccc(C(F)(F)F)cn3)(CC1)CC2)c1cccc(-c2ncc(OC(F)F)cn2)c1)C12CC(F)(C1)C2
A. 6.87

Q. Name the reported pEC50 value associated with the compound O=C(N(CC12CCC(c3noc(C(F)F)n3)(CC1)CC2)c1cccc(-c2ccc(OC(F)F)cc2)c1)C12CC(F)(C1)C2
A. 6.74

Q. Name the reported pEC50 value associated with the compound CC(C)(C)c1nc(C23CCC(CN(C(=O)C45CC(F)(C4)C5)c4cc(-c5ccc(NS(C)(=O)=O)cc5)ccn4)(CC2)CC3)no1
A. 7.11

Q. Name the reported pEC50 value associated with the compound O=C(N(CC12CCC(c3ccc(C(F)(F)F)cn3)(CC1)CC2)c1cccc(-c2ccc(OC(F)F)cc2)c1)C12CC(F)(C1)C2
A. 6.26

Q. Name the reported pEC50 value associated with the compound COc1ncc(-c2cccc(N(CC34CCC(c5ccc(C(F)(F)F)cn5)(CC3)CC4)C(=O)C34CC(F)(C3)C4)c2)cn1
A. 6.29

Q. Name the reported pEC50 value associated with the compound CCOc1ccc(-c2cncc(N(CC34CCC(c5nc(C(C)(C)C)no5)(CC3)CC4)C(=O)C34CC(F)(C3)C4)c2)cc1
A. 6.25
